Cited source for all entries: ChEMBL document CHEMBL1240338

Target: Cyclin-dependent kinase 2 (Homo sapiens)
pIC50: −log10 of the molar value.
RESULT_TYPE: pIC50

Inquiry: Given the compound "COC(=O)c1ccc2c(c1)NC(=O)/C2=C(\Nc1ccc(N(C)C(=O)CN2CCN(C)CC2)cc1)c1ccccc1" , what is its reported pIC50?
Reply text: < 5.00

###

Test: Plasma concentration in NMRI nu/nu mouse at 50 mg/kg, po after 1 hr
Type: ADME, organism-based
Design: dose 50 mg/kg, route oral
RESULT_TYPE: concentration at 1 h (nM)
I only need the number, in nM, no unit after it.

Inquiry: Given the compound COC(=O)c1ccc2c(c1)NC(=O)/C2=C(\Nc1ccc(N(C)C(=O)CN2CCN(C)CC2)cc1)c1ccccc1 [NINTEDANIB] , what is its reported concentration at 1 h?
Reply text: 1000

###

System: HeLa
Assay: Antiangiogenic activity in human HeLa assessed as inhibition of cell proliferation by [3H]thymidine incorporation assay in presence of fetal calf serum
Assay type: functional, cell-based
pEC50: −log10 of the molar value.
RESULT_TYPE: pEC50

Inquiry: Given the compound "COC(=O)c1ccc2c(c1)NC(=O)/C2=C(\Nc1ccc(N(C)C(=O)CN2CCN(C)CC2)cc1)c1ccccc1" , what is its reported pEC50?
Reply text: < 5.46

###

Experiment: Trough plasma concentration in NMRI nu/nu mouse at 50 mg/kg, po after 24 hrs
Format: ADME, organism-based
Design: dose 50 mg/kg, route oral
RESULT_TYPE: concentration at 24 h

Inquiry: Given the compound "COC(=O)c1ccc2c(c1)NC(=O)/C2=C(\Nc1ccc(N(C)C(=O)CN2CCN(C)CC2)cc1)c1ccccc1" , what is its reported concentration at 24 h?
Reply text: < 8 nM

###

Tested on: FaDu
Test: Antiangiogenic activity in human FADU assessed as inhibition of cell proliferation by [3H]thymidine incorporation assay in presence of fetal calf serum
Assay type: functional, cell-based
RESULT_TYPE: EC50

Inquiry: Given the compound "COC(=O)c1ccc2c(c1)NC(=O)/C2=C(\Nc1ccc(N(C)C(=O)CN2CCN(C)CC2)cc1)c1ccccc1" , what is its reported EC50?
Reply text: > 4.5 µM
